Values compiled from ChEMBL document CHEMBL3085738.

Biological target: Cyclin-dependent kinase 1/cyclin B1 (Homo sapiens, UniProt P06493)
Sequence (P06493 whole entry): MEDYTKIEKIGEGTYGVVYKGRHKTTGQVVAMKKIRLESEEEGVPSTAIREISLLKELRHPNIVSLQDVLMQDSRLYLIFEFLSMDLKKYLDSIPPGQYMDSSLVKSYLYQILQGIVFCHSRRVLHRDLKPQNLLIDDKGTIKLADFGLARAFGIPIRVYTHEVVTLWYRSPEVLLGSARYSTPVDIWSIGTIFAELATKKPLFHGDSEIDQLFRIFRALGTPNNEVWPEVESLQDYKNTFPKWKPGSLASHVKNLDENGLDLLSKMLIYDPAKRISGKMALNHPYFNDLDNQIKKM
Sequence (P14635 whole entry, further chain): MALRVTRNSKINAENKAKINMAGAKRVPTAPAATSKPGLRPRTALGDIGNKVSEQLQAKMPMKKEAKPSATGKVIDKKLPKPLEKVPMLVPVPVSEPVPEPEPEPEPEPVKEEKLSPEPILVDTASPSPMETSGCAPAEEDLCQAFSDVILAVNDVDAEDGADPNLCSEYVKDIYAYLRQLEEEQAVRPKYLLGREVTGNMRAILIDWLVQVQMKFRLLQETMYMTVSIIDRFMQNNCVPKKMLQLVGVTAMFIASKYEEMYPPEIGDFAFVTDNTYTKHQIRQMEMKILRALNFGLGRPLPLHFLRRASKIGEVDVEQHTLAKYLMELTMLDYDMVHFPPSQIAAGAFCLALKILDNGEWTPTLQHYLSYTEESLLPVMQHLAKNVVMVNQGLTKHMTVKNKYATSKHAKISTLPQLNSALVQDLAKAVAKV
Test: Inhibition of CDK1/Cyclin B (unknown origin) by radiometric assay
Settings: read-out: Ki(app)
Lab note: compare Ki with 300 nM, writing rule met if less and rule not met if equal or more.

Q. Below 300 nM on Ki? Entry CNc1nc(C)c(-c2nc(Nc3cccc(C(=O)N4CCN(C(C)=O)CC4)c3)ncc2C#N)s1
A. rule met

Q. Below 300 nM on Ki? Entry CC(=O)N1CCN(c2cccc(Nc3ncc(F)c(-c4sc(N)nc4C)n3)c2)CC1
A. rule met

Q. Below 300 nM on Ki? Entry CNc1nc(C)c(-c2nc(Nc3cccc(S(=O)(=O)NCCOC)c3)ncc2C#N)s1
A. rule met

Q. Below 300 nM on Ki? Entry CNc1nc(C)c(-c2ccnc(Nc3ccc(C)c(S(=O)(=O)N4CCOCC4)c3)n2)s1
A. rule not met

Q. Below 300 nM on Ki? Entry Cc1nc(N)sc1-c1nc(Nc2cccc(N3CCN(C)CC3)c2)ncc1F
A. rule met

Q. Below 300 nM on Ki? Entry CNc1nc(C)c(-c2nc(Nc3cccc(C(=O)NC4CCN(C)CC4)c3)ncc2F)s1
A. rule met

Q. Below 300 nM on Ki? Entry CNc1nc(C)c(-c2nc(Nc3cccc(S(=O)(=O)N4CCN(C)CC4)c3)ncc2C#N)s1
A. rule not met

Q. Below 300 nM on Ki? Entry CNc1nc(C)c(-c2nc(Nc3cccc(C(=O)NC4CCN(C)CC4)c3)ncc2C#N)s1
A. rule met
